Experimental system: human COX-2 (Homo sapiens, UniProt P35354)
Sequence (P35354 18-604): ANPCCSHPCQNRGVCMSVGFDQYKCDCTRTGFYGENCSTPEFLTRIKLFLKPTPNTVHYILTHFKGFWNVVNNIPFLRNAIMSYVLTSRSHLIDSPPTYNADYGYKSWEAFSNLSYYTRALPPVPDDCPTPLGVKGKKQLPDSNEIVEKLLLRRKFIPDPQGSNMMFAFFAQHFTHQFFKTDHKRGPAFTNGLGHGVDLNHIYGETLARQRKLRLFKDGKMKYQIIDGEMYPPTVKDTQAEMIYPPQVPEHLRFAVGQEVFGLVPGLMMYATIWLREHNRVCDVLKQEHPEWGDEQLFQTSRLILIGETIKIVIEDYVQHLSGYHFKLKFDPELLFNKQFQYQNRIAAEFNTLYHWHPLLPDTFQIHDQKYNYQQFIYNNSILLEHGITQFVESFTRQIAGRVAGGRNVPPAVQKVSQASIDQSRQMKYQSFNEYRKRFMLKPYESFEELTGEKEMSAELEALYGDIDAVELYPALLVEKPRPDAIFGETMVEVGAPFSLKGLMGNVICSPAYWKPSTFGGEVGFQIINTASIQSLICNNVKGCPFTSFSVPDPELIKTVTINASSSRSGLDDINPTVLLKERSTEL
Procedure summary: COX activity, commercial enzyme immunoassay kit

Compound	Experimental system	COX-2 inhibition, result in words
CC(C(=O)O)c1ccc2c3cc(Cl)ccc3n(C(=O)c3cccc(Cl)c3)c2c1 (stereo not drawn) [Compound 15f]	human COX-2 (Homo sapiens, UniProt P35354)	lost
CC(C(=O)O)c1ccc2c3cc(Cl)ccc3n(C(=O)c3ccccc3Cl)c2c1 (stereo not drawn) [Compound 15g]	human COX-2 (Homo sapiens, UniProt P35354)	lost

The reported measurements were obtained from paper PMC3764917.
